Catalogue of CC50 at 3 days readings, one per entry.
# assay.details: Cytotoxicity in HeLa cells, ATP content measured with the ATPlite kit
# Format: cell-based
# conditions.used: human, TOX HELA pCC50

In the examples that follow, each entry is paired with its recorded CC50 at 3 days.
{"columns": ["compound", "reported.endpoint", "measurement"],
 "data": [
  ["CC1c2ccccc2CCN1C(=O)c1cc(N(C)C)n2nc(-c3ccc(/C=C/C(=O)O)cc3F)cc2n1 (centres unmarked) [Compound M10]", "CC50 at 3 days", "20 µM"],
  ["CCc1cc(C(=O)N2CCCCCC2C)nc2cc(-c3ccc4c(c3)CC(=O)N4)nn12 (centres unmarked) [Compound A8]", "CC50 at 3 days", "> 25.1 µM"],
  ["CCc1cc(C(=O)N2CCCCC[C@H]2C)nc2cc(-c3ccc(N4CC=C(C(=O)O)CC4)cc3F)nn12 [Compound W11]", "CC50 at 3 days", "58.9 µM"],
  ["CCc1cc(C(=O)N2CCCCCC2C)nc2cc(-c3ccc(C(=O)NCc4cccs4)cc3F)nn12 (centres unmarked) [Compound L8]", "CC50 at 3 days", "> 25.1 µM"],
  ["CCc1cc(C(=O)N2CCCCCC2C)nc2cc(-c3ccc(NC(=O)Cc4ccncc4)cc3F)nn12 (centres unmarked) [Compound E2]", "CC50 at 3 days", "> 25.1 µM"],
  ["C[C@@H]1c2ccccc2CCN1C(=O)c1cc(C2CC2)n2nc(-c3ccc(N4CC[C@H](C(=O)O)C4)cc3F)cc2n1 [Compound W38]", "CC50 at 3 days", "46.8 µM"]
]}

## Task Report CC50 at 3 days, nothing else, for this compound: CNc1cc(C(=O)N2CCCCCC2C)nc2cc(-c3ccc(C#N)cc3F)nn12 (centres unmarked) [Compound H1]
## Result > 25.1 µM

## Task Report CC50 at 3 days, nothing else, for this compound: CCc1cc(C(=O)N2CCCCCC2C)nc2cc(-c3ccc(NC(=S)NCC4CCCO4)cc3F)nn12 (centres unmarked) [Compound B13]
## Result > 25.1 µM

====

Catalogue of melting point readings, one per entry.
Lab book: enter the figure in °C, no units written.

{"columns": ["compound", "measure.unit", "melting point"],
 "data": [
  ["C[C@@H]1CCCCCN1C(=O)c1cc(C2CCC2)n2nc(-c3ccc(C4C[C@H]4C(=O)O)cc3F)cc2n1 (mixture of isomers)", "°C", 249.19],
  ["CCc1cc(C(=O)N2CCCCC[C@H]2C)nc2cc(-c3ccc(N(C)c4ccc(C(=O)O)cn4)cc3F)nn12 (racemic)", "°C", 132],
  ["C[C@@H]1c2ccccc2CCN1C(=O)c1cc(C2CC2)n2nc(-c3ccc(N4CC[C@H](C(=O)O)C4)cc3F)cc2n1", "°C", 214]
]}

## Task Report melting point, nothing else, for this compound: CCc1cc(C(=O)N2CCCCCC2C)nc2cc(-c3ccc(C(=O)NCc4cccs4)cc3F)nn12 (stereo not shown)
## Result 156

## Task Report melting point, nothing else, for this compound: CCc1cc(C(=O)N2CCCCCC2C)nc2cc(-c3ccc(NC(=O)C4CC4)cc3C)nn12 (stereo not shown)
## Result 223

## Task Report melting point, nothing else, for this compound: CCc1cc(C(=O)N2CCCCCN2C)nc2cc(-c3ccc(-n4cc(C(=O)O)cn4)cc3F)nn12
## Result 268.79

## Task Report melting point, nothing else, for this compound: CCc1cc(C(=O)N2CCCCC[C@H]2C)nc2cc(-c3ccc4c(C(=O)O)coc4c3F)nn12
## Result 213.87

## Task Report melting point, nothing else, for this compound: CCc1cc(C(=O)N2CCCCCC2C)nc2cc(-c3ccc(NC(=O)NCC4CCCO4)cc3C)nn12 (stereo not shown)
## Result 123

## Task Report melting point, nothing else, for this compound: CC(C)=Cc1cc(C(=O)N2CCCCC[C@H]2C)nc2cc(-c3ccc(N4CC[C@H](C(=O)O)C4)cc3F)nn12
## Result 189.89

====

# assay.details: Cytotoxicity in HeLa cells, ATP content measured with the ATPlite kit
# Type: cell-based
# conditions.used: human, TOX HELA pCC50
Please use 1 for CC50 at 3 days under 60 µM and -1 for everything else, ties included.

Before answering, review these 2 worked examples.
{"columns": ["compound", "group.label"],
 "data": [
  ["C[C@@H]1c2ccsc2CCN1C(=O)c1cc(C2(C)CC2)n2nc(-c3ccc(N4CC[C@H](C(=O)O)C4)cc3F)cc2n1 [Compound W44]", 1],
  ["CCc1cc(C(=O)N2CCc3ccccc3[C@H]2C)nc2cc(-c3ccc(N4CC[C@H](C(=O)O)C4)cc3F)nn12 [Compound W28]", 1]
]}

Now look at this one.
## Task is_below(CC50 at 3 days, 60 µM) for CC1c2ccsc2CCN1C(=O)c1cc(C2CC2)n2nc(-c3cccc(/C=C/C(=O)O)c3F)cc2n1 (centres unmarked) [Compound M46] ?
## Result -1

====

# assay.details: Cytotoxicity in HeLa cells, ATP content measured with the ATPlite kit
# Format: cell-based
# conditions.used: human, TOX HELA pCC50
# Experimental: Black 384-well clear-bottom microtiter plates (Corning, Amsterdam, The Netherlands) were filled via acoustic drop ejection using the echo liquid handler (Labcyte, Sunnyvale, Calif.). 200 nL of compound stock solutions (100% DMSO) were transferred to the assay plates. […] Three days post-virus exposure, viral replication was quantified by measuring GFP expression in the cells by an in house developed MSM laser microscope (Tibotec, Beerse, Belgium). […]
Catalogue of CC50 at 3 days readings, one per entry.
Lab book: enter the figure in µM, no units written.

In the examples that follow, each entry is paired with its recorded CC50 at 3 days.
{"columns": ["molecule", "measure.unit", "CC50 at 3 days"],
 "data": [
  ["CCc1cc(C(=O)N2CCCCCC2C)nc2cc(-c3ccc(NC(=O)NCC4CCCO4)cc3C)nn12 (stereo not shown) [Compound B4]", "µM", 55],
  ["C[C@@H]1CCCCCN1C(=O)c1cc(C2(C)CC2)n2nc(-c3ccc(C4C[C@H]4C(=O)O)cc3F)cc2n1 (mixture of isomers) [Compound O10]", "µM", 45.7]
]}

Please find the next molecule below.
## Task Report CC50 at 3 days, nothing else, for this molecule: CCc1cc(C(=O)N2CCCCC[C@H]2C)nc2cc(-c3ccc(-n4ccc(C(=O)O)n4)cc3F)nn12 [Compound W3]
## Result 60.3

====

# assay.details: Cytotoxicity in HeLa cells, ATP content measured with the ATPlite kit
# Assay type: cell-based
# conditions.used: human, TOX HELA pCC50
# Method: Black 384-well clear-bottom microtiter plates (Corning, Amsterdam, The Netherlands) were filled via acoustic drop ejection using the echo liquid handler (Labcyte, Sunnyvale, Calif.). 200 nL of compound stock solutions (100% DMSO) were transferred to the assay plates. […] Three days post-virus exposure, viral replication was quantified by measuring GFP expression in the cells by an in house developed MSM laser microscope (Tibotec, Beerse, Belgium). […]
Catalogue of CC50 at 3 days readings, one per entry.

{"columns": ["compound", "measurement"],
 "data": [
  ["CC1CCCCCN1C(=O)c1cc(C(F)(F)F)n2nc(-c3ccc(C(N)=O)cc3F)cc2n1 (stereo not shown)", "> 25.1 µM"],
  ["CCc1cc(C(=O)N2CCn3cccc3C2C)nc2cc(-c3ccc4c(c3F)OCC(C(=O)O)=C4)nn12 (racemic)", "> 100 µM"],
  ["CCc1cc(C(=O)N2CCCCCC2C)nc2c(F)c(-c3ccc(C(N)=O)cc3F)nn12 (stereo not shown)", "> 25.1 µM"]
]}

## Task Report CC50 at 3 days, nothing else, for this compound: C[C@@H]1c2ccccc2CCN1C(=O)c1cc(C2(C)CC2)n2nc(-c3ccc(N4CC[C@H](C(=O)O)C4)cc3F)cc2n1
## Result 43.7 µM

====

# Test system: HeLa cells
# assay.details: Cytotoxicity in HeLa cells, ATP content measured with the ATPlite kit
# Assay type: cell-based
Catalogue of TOX HELA pCC50 readings, one per entry.
// return just the number, without any unit appended

{"columns": ["molecule", "TOX HELA pCC50"],
 "data": [
  ["CC1CCCCCN1C(=O)c1cc(N2CCCC2)n2nc(-c3ccc(N(C)C)cc3)cc2n1 (stereo not drawn) [Compound A19]", 4.42],
  ["CC(C)Cc1cc(C(=O)N2CCCCC[C@H]2C)nc2cc(-c3ccc(-n4cc(C(=O)O)cn4)cc3F)nn12 [Compound W13]", 4.38],
  ["C[C@@H]1CCCCCN1C(=O)c1cc(C2CC2)n2nc(-c3ccc(/C=C/C(=O)O)cc3F)cc2n1 [Compound M21]", 4.34],
  ["CCc1cc(C(=O)N2CCCCC[C@H]2C)nc2cc(-c3ccc4oc(C(=O)O)cc4c3F)nn12 [Compound F44]", 4.25],
  ["CCc1cc(C(=O)N2CCc3ccccc3[C@H]2C)nc2cc(-c3ccc(C4C[C@H]4C(=O)O)cc3F)nn12 (stereo partly drawn) [Compound O15]", 4.32]
]}

Please find the next molecule below.
## Task Report TOX HELA pCC50, nothing else, for this molecule: CCc1cc(C(=O)N2CCCCC[C@H]2C)nc2cc(-c3ccc(C4=CCCC(C(=O)O)C4)cc3F)nn12 (stereo partly drawn) [Compound F52]
## Result 4.22
